- Test system: OVCAR-3
- measurementDescription: NCI tumour cell line growth inhibition, 48 h
Activity calls are given as the source filed them. Cut-off read from the data, not from the text of the source: active = GI50 up to about 1.1 µM and inactive = higher.
measure: GI50

Ask | Return reported GI50; argument: Cc1ccc2c(c1)/C(=N/Nc1ccccc1[N+](=O)[O-])C(=O)N2
Reply | 4.85 µM (inactive)

Ask | Continue with COc1ccn(CC(=O)c2cc3ccccc3[nH]2)c(=O)n1
Reply | > 100 µM (inactive)

Ask | Similarly, COc1ccc2c(c1)CCC(CN1CCN(CCOC(c3ccc(F)cc3)c3ccc(F)cc3)CC1)=C2 ?
Reply | 16.9 µM (inactive)

Ask | Now give it for CC(=O)O[C@H]1[C@H](OC(=O)CC(C)(O)CC(=O)O)C[C@]2(C)C3=C(CCC2C1(C)C)[C@]1(C)CC[C@H]([C@H]2CC[C@H](C(C)(C)O)OC2O)[C@@]1(C)[C@@H](O)C3 (some centres undefined) too.
Reply | 16.1 µM (inactive)

Ask | Can you handle O=C(NCCCCCCCCNC(=O)c1cnc2ccccc2n1)c1cnc2ccccc2n1 next?
Reply | > 100 µM (inactive)

Ask | Please do the same for CN(C)c1ccc(/C=C2\Cc3ccccc3C2=O)cc1Br as well.
Reply | > 100 µM (inactive)

Ask | Moving on to the next molecule: Fc1cccc(F)c1C1SCc2nc3cc(Cl)ccc3n21 (centres undefined)
Reply | 46 µM (inactive)

Ask | Queued: CCCc1c(C(=O)OCC)[nH]c(-c2ccc(-c3[nH]c(C(=O)OCC)c(CCC)c3C(=O)OCC)o2)c1C(=O)OCC
Reply | > 100 µM (inactive)

Ask | Please give the result for COC(=O)c1c(O)ccc2[nH]c3c(O)c4ccccc4cc3c12 too.
Reply | 15.9 µM (inactive)

Measured values drawn from ChEMBL document CHEMBL1201862 for this set.
